Experiment: Stability of the analytes in rat tissue homogenates under different conditions
Format: in vitro ADME
Conditions: tissue, spiked 0.2 μg/mL; −80°C for 1 mo
Property: Long-term stability, accuracy (mean ± SD); scope: individual compounds
Quick note: give the figure in %, leave out the unit.

{"structure_notation": "CC(C)=CCC[C@](C)(O[C@@H]1O[C@H](CO[C@@H]2O[C@H](CO)[C@@H](O)[C@H](O)[C@H]2O)[C@@H](O)[C@H](O)[C@H]1O)[C@H]1CC[C@]2(C)[C@@H]1[C@H](O)C[C@@H]1[C@@]3(C)CC[C@H](O[C@@H]4O[C@H](CO)[C@@H](O)[C@H](O)[C@H]4O[C@@H]4O[C@H](CO)[C@@H](O)[C@H](O)[C@H]4O)C(C)(C)[C@@H]3CC[C@]12C", "meas_value": 104.5}
{"structure_notation": "CC(C)=CCC[C@](C)(O[C@@H]1O[C@H](CO)[C@@H](O)[C@H](O)[C@H]1O)[C@H]1CC[C@]2(C)[C@@H]1[C@H](O)C[C@@H]1[C@@]3(C)CC[C@H](O)C(C)(C)[C@@H]3[C@@H](O[C@@H]3O[C@H](CO)[C@@H](O)[C@H](O)[C@H]3O[C@@H]3O[C@@H](C)[C@H](O)[C@@H](O)[C@H]3O)C[C@]12C", "meas_value": 103.8}
{"structure_notation": "CC(C)=CCC[C@](C)(O[C@@H]1O[C@H](CO)[C@@H](O)[C@H](O)[C@H]1O)[C@H]1CC[C@]2(C)[C@@H]1[C@H](O)C[C@@H]1[C@@]3(C)CC[C@H](O[C@@H]4O[C@H](CO)[C@@H](O)[C@H](O)[C@H]4O[C@@H]4O[C@H](CO)[C@@H](O)[C@H](O)[C@H]4O)C(C)(C)[C@@H]3CC[C@]12C", "meas_value": 95.5}

## Input # Long-term stability, accuracy (mean ± SD) lookup, item CC(C)=CCC[C@](C)(O[C@@H]1O[C@H](CO)[C@@H](O)[C@H](O)[C@H]1O)[C@H]1CC[C@]2(C)[C@@H]1[C@H](O)C[C@@H]1[C@@]3(C)CC[C@H](O)C(C)(C)[C@@H]3[C@@H](O[C@@H]3O[C@H](CO)[C@@H](O)[C@H](O)[C@H]3O)C[C@]12C
## Output 92.3

* * *

Property: Freeze–thaw stability, accuracy (mean ± SD); scope: individual compounds
Experiment: Stability of the analytes in rat tissue homogenates under different conditions
Type: in vitro ADME
Settings: tissue, spiked 0.2 μg/mL; three freeze (−80°C)-thaw (room temperature) cycles
Quick note: give the figure in %, leave out the unit.

{"compound": "CC(C)=CCC[C@](C)(O[C@@H]1O[C@H](CO[C@@H]2O[C@H](CO)[C@@H](O)[C@H](O)[C@H]2O)[C@@H](O)[C@H](O)[C@H]1O)[C@H]1CC[C@]2(C)[C@@H]1[C@H](O)C[C@@H]1[C@@]3(C)CC[C@H](O[C@@H]4O[C@H](CO)[C@@H](O)[C@H](O)[C@H]4O[C@@H]4O[C@H](CO)[C@@H](O)[C@H](O)[C@H]4O)C(C)(C)[C@@H]3CC[C@]12C [Rb1]", "meas_value": 108.5}
{"compound": "CC(C)=CCC[C@](C)(O[C@@H]1O[C@H](CO)[C@@H](O)[C@H](O)[C@H]1O)[C@H]1CC[C@]2(C)[C@@H]1[C@H](O)C[C@@H]1[C@@]3(C)CC[C@H](O)C(C)(C)[C@@H]3[C@@H](O[C@@H]3O[C@H](CO)[C@@H](O)[C@H](O)[C@H]3O)C[C@]12C [Rg1]", "meas_value": 95.3}
{"compound": "CC(C)=CCC[C@](C)(O[C@@H]1O[C@H](CO)[C@@H](O)[C@H](O)[C@H]1O)[C@H]1CC[C@]2(C)[C@@H]1[C@H](O)C[C@@H]1[C@@]3(C)CC[C@H](O)C(C)(C)[C@@H]3[C@@H](O[C@@H]3O[C@H](CO)[C@@H](O)[C@H](O)[C@H]3O[C@@H]3O[C@@H](C)[C@H](O)[C@@H](O)[C@H]3O)C[C@]12C [Re]", "meas_value": 100.7}

API: the following record is the query input.
## Input # Freeze–thaw stability, accuracy (mean ± SD) lookup, item CC(C)=CCC[C@](C)(O[C@@H]1O[C@H](CO)[C@@H](O)[C@H](O)[C@H]1O)[C@H]1CC[C@]2(C)[C@@H]1[C@H](O)C[C@@H]1[C@@]3(C)CC[C@H](O[C@@H]4O[C@H](CO)[C@@H](O)[C@H](O)[C@H]4O[C@@H]4O[C@H](CO)[C@@H](O)[C@H](O)[C@H]4O)C(C)(C)[C@@H]3CC[C@]12C [Rd]
## Output 96.5

* * *

Experiment: Stability of the analytes in rat tissue homogenates under different conditions
Type: in vitro ADME
Conditions: tissue, spiked 0.2 μg/mL
Property: Short-term stability, accuracy (mean ± SD); scope: individual compounds
Quick note: give the figure in %, leave out the unit.

Please review the entries below; each comes with its answer.
{"compound": "CC(C)=CCC[C@](C)(O[C@@H]1O[C@H](CO)[C@@H](O)[C@H](O)[C@H]1O)[C@H]1CC[C@]2(C)[C@@H]1[C@H](O)C[C@@H]1[C@@]3(C)CC[C@H](O)C(C)(C)[C@@H]3[C@@H](O[C@@H]3O[C@H](CO)[C@@H](O)[C@H](O)[C@H]3O)C[C@]12C [Rg1]", "meas_value": 92.3}
{"compound": "CC(C)=CCC[C@](C)(O[C@@H]1O[C@H](CO)[C@@H](O)[C@H](O)[C@H]1O)[C@H]1CC[C@]2(C)[C@@H]1[C@H](O)C[C@@H]1[C@@]3(C)CC[C@H](O[C@@H]4O[C@H](CO)[C@@H](O)[C@H](O)[C@H]4O[C@@H]4O[C@H](CO)[C@@H](O)[C@H](O)[C@H]4O)C(C)(C)[C@@H]3CC[C@]12C [Rd]", "meas_value": 107.2}
{"compound": "CC(C)=CCC[C@](C)(O[C@@H]1O[C@H](CO[C@@H]2O[C@H](CO)[C@@H](O)[C@H](O)[C@H]2O)[C@@H](O)[C@H](O)[C@H]1O)[C@H]1CC[C@]2(C)[C@@H]1[C@H](O)C[C@@H]1[C@@]3(C)CC[C@H](O[C@@H]4O[C@H](CO)[C@@H](O)[C@H](O)[C@H]4O[C@@H]4O[C@H](CO)[C@@H](O)[C@H](O)[C@H]4O)C(C)(C)[C@@H]3CC[C@]12C [Rb1]", "meas_value": 102.4}

## Input # Short-term stability, accuracy (mean ± SD) lookup, item CC(C)=CCC[C@](C)(O[C@@H]1O[C@H](CO)[C@@H](O)[C@H](O)[C@H]1O)[C@H]1CC[C@]2(C)[C@@H]1[C@H](O)C[C@@H]1[C@@]3(C)CC[C@H](O)C(C)(C)[C@@H]3[C@@H](O[C@@H]3O[C@H](CO)[C@@H](O)[C@H](O)[C@H]3O[C@@H]3O[C@@H](C)[C@H](O)[C@@H](O)[C@H]3O)C[C@]12C [Re]
## Output 92.4
